Sourced from ChEMBL document CHEMBL4049439

# PROTOCOL DESCRIPTION: Fraction unbound in NMRI mouse plasma at 120 mg/kg, sc by rapid equilibrium dialysis
# Format: ADME, organism-based
OBSERVABLE: fraction unbound
Respond numerically, and do not add a unit to the figure.

Documented fraction unbound of COc1ccc2ccc(=O)n(C[C@H](N)[C@@H]3CC[C@@H](NCc4ccc5c(n4)NC(=O)CO5)CO3)c2n1 : 0.369

###

# Tested on: Pseudomonas aeruginosa
# PROTOCOL DESCRIPTION: Antibacterial activity against Pseudomonas aeruginosa ATCC 27853 by CLSI broth microdilution method
# Type: functional
OBSERVABLE: MIC

{"COMPOUND": "COc1ccc2nccc(CC(N)[C@@H]3CC[C@@H](NCc4ccc5c(n4)NC(=O)CO5)CO3)c2n1 (mixture of isomers)", "VAL": "2 µg/mL"}
{"COMPOUND": "COc1ccc2ncc(=O)n(C[C@H](N)[C@@H]3CC[C@@H](NCc4ccc5c(n4)NC(=O)CO5)CO3)c2c1", "VAL": "4 µg/mL"}

Next, consider the following compound.
Documented MIC of COc1ccc2ccc(=O)n(C[C@H](O)[C@@H]3CC[C@@H](NCc4cc5c(nn4)OCCS5)CO3)c2n1 : > 8 µg/mL
